Source listed as patent US12285431B2.

Target: CDK4/CyclinD1 (Homo sapiens, UniProt P11802)
Sequence (P11802 whole entry, species assumed): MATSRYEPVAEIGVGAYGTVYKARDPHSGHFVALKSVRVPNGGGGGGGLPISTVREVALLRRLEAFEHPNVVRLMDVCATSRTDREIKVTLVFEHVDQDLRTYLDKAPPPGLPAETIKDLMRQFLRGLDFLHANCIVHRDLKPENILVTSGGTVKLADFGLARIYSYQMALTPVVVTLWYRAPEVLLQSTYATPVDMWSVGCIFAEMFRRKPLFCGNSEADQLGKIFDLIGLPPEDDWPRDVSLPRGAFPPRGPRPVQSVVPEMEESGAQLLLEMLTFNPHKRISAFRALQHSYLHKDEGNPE
Sequence (P24385 whole entry partner, species assumed): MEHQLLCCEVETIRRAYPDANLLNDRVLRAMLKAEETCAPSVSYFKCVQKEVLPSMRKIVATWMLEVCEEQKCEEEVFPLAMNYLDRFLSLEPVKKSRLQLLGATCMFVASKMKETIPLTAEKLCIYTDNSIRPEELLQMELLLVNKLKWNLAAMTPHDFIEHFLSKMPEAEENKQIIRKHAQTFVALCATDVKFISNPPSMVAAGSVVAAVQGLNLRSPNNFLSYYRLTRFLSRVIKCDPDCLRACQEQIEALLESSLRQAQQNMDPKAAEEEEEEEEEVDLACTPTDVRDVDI
Assay: CDK4/cyclinD1 kinase assay (Nanosyn, Caliper microfluidic kinase detection)
Assay type: biochemical
Details: Table 2; 12-point dose-response, ATP at Km (200 μM), 10 hr; read-out: CDK4/CycD1 IC50
measuredQuantity: pIC50
The value called pIC50 is obtained by taking minus log10 of the concentration in mol/L.

>  <compound>
CC(C)C[C@@H]1CNC(=O)c2cc3cnc(Nc4ccc(N5CCN(C)CC5)cn4)nc3n21

>  <pIC50>
7.94

$$$$
>  <compound>
C[C@@H]1CN(c2ccc(Nc3ncc4cc5n(c4n3)C3(CCCCC3)CNC5=O)nc2)CCN1C

>  <pIC50>
8.43

$$$$
>  <compound>
C[C@@H]1CN(c2ccc(Nc3ncc4cc5n(c4n3)C3(CCCC3)CNC5=O)nc2)C[C@H](C)N1

>  <pIC50>
8.02

$$$$

Would you kindly look at the next entry?
Prompt: Item under review: CC(C)N1CCN(c2ccc(Nc3ncc4cc5n(c4n3)C3(CCCCC3)CNC5=O)nc2)CC1C (stereo not shown) . Reported pIC50?
Response: 8.51
